Test: qHTS of TDP-43 Inhibitors; also: nearly all actives have a fitted effect of over 50% in size
Details: TDP-43 expressing yeast growth rescue, BacTiter-Glo, 24 h; series mostly up to 46.1 µM
Out of some 410,000 compounds screened, about 7,200 (1.8%) were called active. Inconclusive results (about 7%) are left out. Calls follow the shape of the dose curve; as a rule, active = well fitted activation curve with a large enough effect; inconclusive = small, poorly fitted or top-dose-only effect, or another doubt; inactive = no such curve, though single readings can be large or run the other way. The sample holds actives, similar compounds and a random draw of the others, so the mix is not that of the screen.
Outcome codes: yes (1) = active, no (0) = inactive

# Compound, Label Value
rows = [
    ("COc1ccc(C2=NS(=O)(=O)N(C)C(C(=O)N(C)Cc3ccccc3)=C2)cc1", "no (0)"),
    ("CC(=O)c1ccc(NC(=O)CSc2nnc(NC(=O)Nc3ccccc3)s2)cc1", "no (0)"),
    ("Cc1ccc(CN2C(=O)SC(Nc3ccccc3)C2=O)cc1 (stereo unspecified)", "no (0)"),
    ("CN(CCOc1ccccc1)C(=O)c1cc(-c2ccco2)nc2ccccc12", "yes (1)"),
    ("Cc1cc2nc(-c3ccco3)c(Cc3cccc(F)c3)n2c(C)c1Br", "yes (1)"),
    ("Cc1ccc2nc(/C(C#N)=C/c3ccc(-c4ccc(C(=O)OC(C)C)cc4)o3)[nH]c2c1", "no (0)"),
    ("COc1cccc(NC(=O)CN(C)C(=O)c2cc(Cl)nc3ccccc23)c1", "no (0)"),
    ("O=C(c1ccc(N2CCOCC2)c([N+](=O)[O-])c1)N1CCN(c2ccccc2F)CC1", "yes (1)"),
    ("COc1ccc(NC(=O)C(=O)NCc2ccco2)cc1", "no (0)"),
    ("Cc1ccc2nc(CN3CCN(S(=O)(=O)c4ccc(C)c(C)c4)CC3)oc2c1", "no (0)"),
    ("Cc1cc2nc(-c3ccc(F)cc3)c(Cc3ccsc3)n2c(C)c1Br", "no (0)"),
    ("CCc1ccccc1NC(=O)/C(=C/c1ccccc1)c1ccccc1", "no (0)"),
    ("CCC(=O)c1ccc(N2CCN(C(=O)c3cc([N+](=O)[O-])ccc3F)CC2)c(F)c1", "yes (1)"),
    ("O=C(O)C1CCN(c2ccc([N+](=O)[O-])cc2[N+](=O)[O-])CC1", "no (0)"),
    ("CN(Cc1ccccc1)C(=O)c1cc2c(=O)n(C)c3ccccc3c2s1", "no (0)"),
    ("CCc1ccc2oc(-c3ccc(C)c(NC(=O)/C=C/c4ccco4)c3)nc2c1", "no (0)"),
    ("Cc1cccc(N2CCN(S(=O)(=O)c3ccc4[nH]c5c(c4c3)CCCCC5)CC2)c1C", "no (0)"),
    ("CN(C(=O)CSc1nnc(NC(=O)Nc2ccccc2)s1)c1ccccc1", "no (0)"),
    ("O=C(CN1C(=O)COc2ccc(S(=O)(=O)N3CCOCC3)cc21)N1CCN(c2cccc(Cl)c2)CC1", "no (0)"),
    ("CC(=O)Nc1cnc(-c2ccc(O)cc2C)cn1", "no (0)"),
    ("CCOc1ccc(N(CC)S(=O)(=O)N2CCCC(C(=O)Nc3ccc(C(C)=O)cc3)C2)cc1 (stereo unspecified)", "no (0)"),
]

###

Assay: qHTS of TDP-43 Inhibitors; also: nearly all actives have a fitted effect of over 50% in size
Details: TDP-43 expressing yeast growth rescue, BacTiter-Glo, 24 h; series mostly up to 46.1 µM
The whole screen tested about 410,000 compounds, of which about 7,200 (1.8%) were called active. Another 7% or so got no clear call; they are omitted. Calls follow the shape of the dose curve; as a rule, active = well fitted activation curve with a large enough effect; inconclusive = small, poorly fitted or top-dose-only effect, or another doubt; inactive = no such curve, though single readings can be large or run the other way. The entries come from a sample that favours actives as a whole.
Classes used: label 1 for active, label 0 for inactive

# Compound Structure, Label Value
records = [
    ("Nc1[nH]c(C(=O)c2ccccc2)c(-c2ccncc2)c1C(=O)NCc1cccc2ccccc12", "label 0"),
    ("Cc1ccc(S(=O)(=O)n2nc(-c3ccc(Cl)cc3)nc2NCc2ccccc2)cc1", "label 0"),
    ("Cc1cccc2nc(-c3ccc(Cl)s3)c(Nc3ccc4c(c3)OCCO4)n12", "label 0"),
    ("Cc1nc2ccccc2c(-c2ccccc2)c1C(=O)c1ccccc1", "label 1"),
    ("CCN(CCCNC(=O)c1cc(Nc2ccc(OC)cc2)nc2ccccc12)c1cccc(C)c1", "label 0"),
    ("Cc1ccc(CNC(=O)c2c(O)nc3c(C)cccn3c2=O)cc1", "label 0"),
    ("Cc1ccc(Nc2c(-c3ccc(C)s3)nc3ccccn23)cc1", "label 0"),
    ("CCN(CC)CCNc1ncnc2c1cnn2-c1cc(Cl)ccc1C", "label 0"),
    ("CC(C)(C)C(=O)c1c(N)[nH]c(C(=O)c2ccccc2)c1-c1ccc(F)cc1", "label 0"),
    ("COc1ccc(-c2nc3cnccn3c2NC(C)(C)CC(C)(C)C)cc1O", "label 0"),
]
